src = ChEMBL document CHEMBL3045485

tested on: SF-295; test: Cytotoxicity against Homo sapiens (human) SF295 cells assessed as growth inhibition at 1 x 10^-4 mole after 48 hr by SRB assay; format: functional

# compound string, growth inhibition (GI)
measured = [
    ("COc1ccc(/C=C(\\C(=O)O)c2ccccc2)cc1O", "12%"),
    ("O=C(O)/C(=C\\c1ccccc1)c1ccccc1", "25%"),
    ("COc1cc(/C=C(\\C(=O)O)c2ccccc2)cc(OC)c1OC", "25%"),
    ("O=C(O)/C(=C\\c1ccc2c(c1)OCO2)c1ccccc1", "38%"),
    ("COc1cccc(/C=C(\\C(=O)O)c2ccccc2)c1OC", "24%"),
]

====

system: MCF7; assay: Cytotoxicity against Homo sapiens (human) MCF-7 cells assessed as growth inhibition at 5 x 10^-5 mole after 48 hr by SRB assay; assay type: functional

# compound string, readout units, growth inhibition (GI)
records = [
    ("O=C(O)/C(=C\\c1cccc(Cl)c1)c1ccccc1", "%", 0),
    ("COc1cccc(/C=C(\\C(=O)O)c2ccccc2)c1OC", "%", 25),
    ("O=C(O)/C(=C\\c1ccccc1Cl)c1ccccc1", "%", 5),
    ("O=C(O)/C(=C\\c1ccc2c(c1)OCO2)c1ccccc1", "%", 32),
    ("COc1ccc(/C=C(\\C(=O)O)c2ccccc2)cc1O", "%", 14),
    ("COc1cc(/C=C(\\C(=O)O)c2ccccc2)cc(OC)c1OC", "%", 54),
    ("O=C(O)/C(=C\\c1ccccc1)c1ccccc1", "%", 29),
    ("CC(=O)Oc1ccccc1/C=C(\\C(=O)O)c1ccccc1", "%", 6),
    ("O=C(O)/C(=C\\c1ccc(Cl)cc1)c1ccccc1", "%", 10),
    ("O=C(O)/C(=C\\c1cccc(O)c1O)c1ccccc1", "%", 14),
]
